Could you please report measured normalized growth for the items listed next?
EXPERIMENT_SUMMARY: chemical genetic growth profiling, strain panel (AID 1159580);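 further: tested at 20 µM; growth read once vehicle control cultures reached saturation at 30 °C; 1 = growth at the plate median or of vehicle wells; lower values mean less growth of the strain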
CONDITION_LABEL: S. cerevisiae deletion strains, growth OD, locus YER155C, strain BEM2 (second series), hits give low values
Out of some 5,500 compounds screened, about 2,000 (36%) were called active. Inconclusive results (about 18%) are left out. The list shows a part of the results.
Numbers only.

COMPOUND: CN(C)[C@@H]1C(=O)C(C(N)=O)=C(O)[C@@]2(O)C(=O)C3=C(O)c4c(O)cccc4[C@@](C)(O)[C@H]3[C@H](O)[C@@H]12
normalized growth: 0.995

COMPOUND: CN(C)[C@@H]1C(=O)C(C(N)=O)=C(O)[C@@]2(O)C(=O)C3=C(O)c4c(O)ccc(Cl)c4[C@@H](O)[C@H]3C[C@@H]12
normalized growth: 0.932

COMPOUND: COc1ccc2cc(CCC(C)=O)ccc2c1
normalized growth: 0.843

COMPOUND: O=P1(NCCCl)OCCCN1CCCl (centres undefined)
normalized growth: 1.01

COMPOUND: CC(=O)O[C@H]1CCC2(C)C3=C(CCC2C1(C)C)[C@]1(C)CCC(C(C)CCC=C(C)C)[C@@]1(C)CC3 (some centres undefined)
normalized growth: 1.02

Quick batch: normalized growth for everything below.
1. CO[C@H]1CC(O[C@@H]2/C(C)=C/C[C@@H]3C[C@@H](C[C@]4(CC[C@H](C)[C@@H](C5CCCCC5)O4)O3)OC(=O)[C@@H]3C=C(C)/C(=N\O)[C@H]4OC/C(=C\C=C\[C@@H]2C)[C@]43O)O[C@@H](C)C1O (some centres undefined)
2. C=C1c2cccc(O)c2C(O)=C2C(=O)[C@]3(O)C(O)=C(C(N)=O)C(=O)[C@@H](N(C)C)[C@@H]3[C@@H](O)[C@H]12
3. CCCSc1ccc2nc(NC(=O)OC)[nH]c2c1
4. C=C1c2c(Cl)ccc(O)c2C(O)=C2C(=O)[C@]3(O)C(O)=C(C(N)=O)C(=O)[C@@H](N(C)C)[C@@H]3[C@@H](O)[C@H]12

output:
1: 1; 2: 0.966; 3: 0.999; 4: 0.947

###

Could you please report measured normalized growth for the items listed next?
EXPERIMENT_SUMMARY: chemical genetic growth profiling, strain panel (AID 1159580);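 further: tested at 20 µM; growth read once vehicle control cultures reached saturation at 30 °C; 1 = growth at the plate median or of vehicle wells; lower values mean less growth of the strain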
CONDITION_LABEL: S. cerevisiae deletion strains, growth OD, locus YDR334W, strain swr1, hits give low values
Hit rate of the full screen: of about 5,500 compounds, about 2,000 (36%) were called active. Another 18% or so got no clear call; they are omitted. The list shows a part of the results.

Recorded normalized growth, per entry:
SUBSTANCE_SMILES: Nc1ccc(S(=O)(=O)NC(=O)c2ccccc2)cc1
normalized growth: 0.934 (inactive)

SUBSTANCE_SMILES: O=C(O)c1ccc(S(=O)(=O)N(Cl)Cl)cc1
normalized growth: 0.97 (inactive)

SUBSTANCE_SMILES: O=C(O)c1cccnc1
normalized growth: 0.971 (inactive)

# evaluate next
input: So what's the measured normalized growth for this one? NC(=O)c1cccnc1
output: 0.928 (inactive)

###

EXPERIMENT_SUMMARY: chemical genetic growth profiling, strain panel (AID 1159580);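 further: tested at 20 µM; growth read once vehicle control cultures reached saturation at 30 °C; 1 = growth at the plate median or of vehicle wells; lower values mean less growth of the strain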
CONDITION_LABEL: S. cerevisiae deletion strains, growth OD, locus YMR231W, strain pep5, hits give low values
In all, about 5,500 compounds went through this assay and about 2,000 (36%) were called active. Another 18% or so got no clear call; they are omitted. This is one part of the list.
Could you please report measured normalized growth for the items listed next?
Give bare numbers.

Recorded normalized growth, per entry:
COMPOUND: CC(CCC(=O)O)[C@H]1CCC2C3CC[C@@H]4C[C@H](O)CC[C@]4(C)C3C=C[C@@]21C (some centres undefined)
normalized growth: 0.963
//
COMPOUND: C/C1=C/CC(C)(C)/C=C/C/C(C)=C/CC1
normalized growth: 0.966
//
COMPOUND: CCCOc1ccc2nc(NC(=O)OC)[nH]c2c1
normalized growth: 1.01

Quick batch: normalized growth for everything below.
1. O=C(O)C1=CCCNC1
2. CC(=O)N[C@@H](Cc1c[nH]c2ccccc12)C(N)=O
3. COc1ccc([C@@H]2CC(=O)c3c(O)cc(O[C@@H]4O[C@H](CO[C@H]5O[C@@H](C)[C@H](O)[C@@H](O)[C@H]5O)[C@@H](O)[C@H](O)[C@H]4O)cc3O2)cc1O
4. CC(=O)c1ccc(O)c(CC=C(C)C)c1

output:
1: 0.985; 2: 1.02; 3: 0.969; 4: 0.972

Quick batch: normalized growth for everything below.
1. CN[C@@H]1[C@H](O)[C@H](NC)[C@H]2O[C@@]3(O)C(=O)C[C@@H](C)O[C@H]3O[C@@H]2[C@H]1O
2. CC(=O)Oc1ccc(/C=C/c2cc(OC(C)=O)cc(OC(C)=O)c2)cc1
3. CC(CCC(=O)O)[C@H]1CCC2C3C(=O)C[C@@H]4CC(=O)CC[C@]4(C)C3CC(=O)[C@@]21C (some centres undefined)
4. CC(C)NCC(O)COc1ccc(COCCOC(C)C)cc1 (centres undefined)
5. NS(=O)(=O)c1cc2c(cc1Cl)NC(CSCc1ccccc1)=NS2(=O)=O
6. CN(C)C(=O)Oc1cccc([N+](C)(C)C)c1
7. CN(C)CCCN1c2ccccc2CCc2ccc(Cl)cc21

output:
[1, 0.965, 0.999, 0.998, 1.01, 0.999, 0.999]

These data points were gathered from PubChem BioAssay AID1159580.
